For each entry below, report its IC50 value.
- Target Or Test System: Human M4 (Homo sapiens, UniProt P08173)
- Sequence (P08173 whole entry): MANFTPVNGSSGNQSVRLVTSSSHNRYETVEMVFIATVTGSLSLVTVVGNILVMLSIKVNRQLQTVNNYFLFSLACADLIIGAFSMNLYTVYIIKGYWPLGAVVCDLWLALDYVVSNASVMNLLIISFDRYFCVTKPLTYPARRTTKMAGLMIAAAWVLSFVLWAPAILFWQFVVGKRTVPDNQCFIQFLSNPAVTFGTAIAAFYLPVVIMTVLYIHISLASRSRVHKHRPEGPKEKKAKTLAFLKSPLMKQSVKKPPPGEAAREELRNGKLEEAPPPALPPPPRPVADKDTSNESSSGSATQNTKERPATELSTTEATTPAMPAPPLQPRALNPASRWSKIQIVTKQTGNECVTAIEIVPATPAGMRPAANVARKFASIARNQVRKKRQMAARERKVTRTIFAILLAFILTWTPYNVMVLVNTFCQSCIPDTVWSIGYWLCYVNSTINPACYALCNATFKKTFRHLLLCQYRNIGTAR
- Assay Remarks: mAChR M4 cell-based functional assay (calcium flux, antagonism of EC80 acetylcholine response)
- Applied Conditions: M4/Gqi5/CHO-K1 cells; concentration-dependent decrease of the response elicited by an EC80 concentration of acetylcholine
Number only, in nM; omit the unit.

Hello, please tell me recorded IC50 for this one: CC(=O)Nc1ccc(-c2ccc(N[C@H]3C[C@@H]4CN(Cc5ccccc5C(F)(F)F)C[C@@H]4C3)nn2)cc1 [Compound A7]
1100

Give the measured IC50 for CCC(=O)Nc1ccc(-c2ccc(N[C@H]3C[C@@H]4CN(CC5CCOCC5)C[C@@H]4C3)nn2)cc1 [Compound A39]
3.1

Kindly indicate its recorded IC50. Item: O=C(NC1CC1)c1cccc(-c2ccc(N[C@H]3C[C@@H]4CN(CC5CCOCC5)C[C@@H]4C3)nn2)c1 [Compound A28]
25

Please give the documented IC50 of [2H]C([2H])([C@@H]1CCCCO1)N1C[C@H]2C[C@H](Nc3ccc(-c4cc(F)cc(C(=O)NC)c4)nn3)C[C@H]2C1 [Compound A86]
2.7

Assign IC50 to the following record: [2H]C([2H])(C1CCOCC1)N1C[C@H]2C[C@H](Nc3ccc(-c4cccc(NC(=O)C5CC5)c4)nn3)C[C@H]2C1 [Compound A32]
16
